- ASSAY TEXT: Solubility measurement (DMSO solution precipitation method)
- Assay type: physicochemical
- TEST CONTEXT: aqueous buffer, kinetic from dmso stock; McIlvaine buffer pH 6.8, 24 h; read-out: solubility pH 6.8
Entries and their solubility at 24 h

- MOLECULE: "C[C@H]1CN(C)CCN1c1nccc(-c2cc([C@@]3(C)CCCc4sc(N)c(C#N)c43)on2)n1 [Example V-27]"
  COMPARISON SYMBOL: "="
  solubility at 24 h / µg/mL: 18
- MOLECULE: "C[C@H](Oc1ccnc(-c2cc([C@@]3(C)CCCc4sc(N)c(C#N)c43)on2)n1)[C@@H]1CCCN1C [Example V-24]"
  COMPARISON SYMBOL: ">"
  solubility at 24 h / µg/mL: 110
- MOLECULE: "C[C@H]1CN(C)CCN1c1cccc(-c2noc([C@@]3(C)CCCc4sc(N)c(C#N)c43)n2)n1 [Example V-1]"
  COMPARISON SYMBOL: "="
  solubility at 24 h / µg/mL: 76
- MOLECULE: "C[C@H]1CN(CC2CC2)CCCN1c1nccc(-c2noc([C@@]3(C)CCCc4sc(N)c(C#N)c43)n2)n1 [Example V-3]"
  COMPARISON SYMBOL: "="
  solubility at 24 h / µg/mL: 82
- MOLECULE: "C[C@H](Oc1nccc(-c2noc([C@@]3(C)CCCc4sc(N)c(C#N)c43)n2)n1)[C@@H]1CCCN1C [Example V-10]"
  COMPARISON SYMBOL: ">"
  solubility at 24 h / µg/mL: 110
- MOLECULE: "CC(C)N1CCCN(c2nccc(-c3cc([C@@]4(C)CCCc5sc(N)c(C#N)c54)on3)n2)[C@@H](C)C1 [Example V-26]"
  COMPARISON SYMBOL: "="
  solubility at 24 h / µg/mL: 95
- MOLECULE: "C[C@H]1CNCCCN1c1nccc(-c2noc([C@@]3(C)CCCc4sc(N)c(C#N)c43)n2)n1 [Example V-6]"
  COMPARISON SYMBOL: "="
  solubility at 24 h / µg/mL: 85
- MOLECULE: "CC(C)N1CCCN(c2nccc(-c3noc([C@@]4(C)CCCc5sc(N)c(C#N)c54)n3)n2)[C@@H](C)C1 [Example V-9]"
  COMPARISON SYMBOL: ">"
  solubility at 24 h / µg/mL: 110
- MOLECULE: "C[C@H]1CNCCN1c1nccc(-c2noc([C@@]3(C)CCCc4sc(N)c(C#N)c43)n2)n1 [Example V-4]"
  COMPARISON SYMBOL: ">"
  solubility at 24 h / µg/mL: 91
- MOLECULE: "C[C@H]1CN(C)CCCN1c1nccc(-c2noc([C@@]3(C)CCCc4sc(N)c(C#N)c43)n2)n1 [Example V-5]"
  COMPARISON SYMBOL: "="
  solubility at 24 h / µg/mL: 92
- MOLECULE: "C[C@H](Oc1ccnc(-c2noc([C@@]3(C)CCCc4sc(N)c(C#N)c43)n2)n1)[C@@H]1CCCN1C [Example V-11]"
  COMPARISON SYMBOL: ">"
  solubility at 24 h / µg/mL: 116
- MOLECULE: "C[C@H](Oc1cccc(-c2noc([C@@]3(C)CCCc4sc(N)c(C#N)c43)n2)n1)[C@@H]1CCCN1C [Example V-8]"
  COMPARISON SYMBOL: ">"
  solubility at 24 h / µg/mL: 95
- MOLECULE: "COCCCN1CCCN(c2nccc(-c3noc([C@@]4(C)CCCc5sc(N)c(C#N)c54)n3)n2)[C@@H](C)C1 [Example V-2]"
  COMPARISON SYMBOL: "="
  solubility at 24 h / µg/mL: 100
- MOLECULE: "C[C@H](Oc1ccnc(-c2cc([C@@]3(C)CCCc4sc(N)c(C#N)c43)no2)n1)[C@@H]1CCCN1C [Example V-25]"
  COMPARISON SYMBOL: ">"
  solubility at 24 h / µg/mL: 100

----------
- ASSAYED TARGET: KRAS G12V Ba/F3 cells (Homo sapiens, UniProt P01116, G12V, cells depend on it)
- Sequence (P01116 whole entry G12V): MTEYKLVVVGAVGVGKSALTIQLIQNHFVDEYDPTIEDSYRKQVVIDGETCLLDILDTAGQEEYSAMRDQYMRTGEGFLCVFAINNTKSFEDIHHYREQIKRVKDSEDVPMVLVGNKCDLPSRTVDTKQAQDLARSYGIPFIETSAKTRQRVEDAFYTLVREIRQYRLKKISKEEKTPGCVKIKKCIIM
- ASSAY TEXT: Ba/F3 proliferation assay, KRAS G12V
- Type: cell-based
- TEST CONTEXT: 72 h, AlamarBlue, read-out: KRAS G12V Ba/F3 IC50
// values below are reported GI50

- SUBSTANCE SMILES: "C[C@H]1CNCCN1c1nccc(-c2noc([C@@]3(C)CCCc4sc(N)c(C#N)c43)n2)n1"
  ASSAYED TARGET: "KRAS G12V Ba/F3 cells (Homo sapiens, UniProt P01116, G12V, cells depend on it)"
  GI50 (nM): 1080
- SUBSTANCE SMILES: "C[C@H]1CN(CC2CC2)CCCN1c1nccc(-c2noc([C@@]3(C)CCCc4sc(N)c(C#N)c43)n2)n1"
  ASSAYED TARGET: "KRAS G12V Ba/F3 cells (Homo sapiens, UniProt P01116, G12V, cells depend on it)"
  GI50 (nM): 516
- SUBSTANCE SMILES: "COCCCN1CCCN(c2nccc(-c3noc([C@@]4(C)CCCc5sc(N)c(C#N)c54)n3)n2)[C@@H](C)C1"
  ASSAYED TARGET: "KRAS G12V Ba/F3 cells (Homo sapiens, UniProt P01116, G12V, cells depend on it)"
  GI50 (nM): 917
- SUBSTANCE SMILES: "C[C@H]1CNCCCN1c1nccc(-c2noc([C@@]3(C)CCCc4sc(N)c(C#N)c43)n2)n1"
  ASSAYED TARGET: "KRAS G12V Ba/F3 cells (Homo sapiens, UniProt P01116, G12V, cells depend on it)"
  GI50 (nM): 1070
- SUBSTANCE SMILES: "C[C@H]1CN(C)CCCN1c1nccc(-c2noc([C@@]3(C)CCCc4sc(N)c(C#N)c43)n2)n1"
  ASSAYED TARGET: "KRAS G12V Ba/F3 cells (Homo sapiens, UniProt P01116, G12V, cells depend on it)"
  GI50 (nM): 640

----------
- ASSAY TEXT: Metabolic (microsomal) stability assay, HLM
- Format: in vitro ADME
- TEST CONTEXT: human liver microsomes, 1 μM, predicted clearance as percent of liver blood flow
Parameter: HLM QH. Scope: all listed entries.
MEASURED PARAMETER: HLM QH (%)

- SUBSTANCE SMILES: "C[C@H]1CNCCCN1c1nccc(-c2noc([C@@]3(C)CCCc4sc(N)c(C#N)c43)n2)n1"
  MEASURED PARAMETER: "HLM QH"
  VALUE UNITS: "%"
  COMPARISON SYMBOL: "="
  REPORTED RESULT: 77
- SUBSTANCE SMILES: "COCCCN1CCCN(c2nccc(-c3noc([C@@]4(C)CCCc5sc(N)c(C#N)c54)n3)n2)[C@@H](C)C1"
  MEASURED PARAMETER: "HLM QH"
  VALUE UNITS: "%"
  COMPARISON SYMBOL: ">"
  REPORTED RESULT: 95
- SUBSTANCE SMILES: "C[C@H]1CN(C)CCN1c1nccc(-c2cc([C@@]3(C)CCCc4sc(N)c(C#N)c43)on2)n1"
  MEASURED PARAMETER: "HLM QH"
  VALUE UNITS: "%"
  COMPARISON SYMBOL: ">"
  REPORTED RESULT: 88
- SUBSTANCE SMILES: "C[C@H]1CN(C)CCN1c1cccc(-c2noc([C@@]3(C)CCCc4sc(N)c(C#N)c43)n2)n1"
  MEASURED PARAMETER: "HLM QH"
  VALUE UNITS: "%"
  COMPARISON SYMBOL: "="
  REPORTED RESULT: 93
- SUBSTANCE SMILES: "C[C@H]1CNCCN1c1nccc(-c2noc([C@@]3(C)CCCc4sc(N)c(C#N)c43)n2)n1"
  MEASURED PARAMETER: "HLM QH"
  VALUE UNITS: "%"
  COMPARISON SYMBOL: "="
  REPORTED RESULT: 83
- SUBSTANCE SMILES: "C[C@H](Oc1cccc(-c2noc([C@@]3(C)CCCc4sc(N)c(C#N)c43)n2)n1)[C@@H]1CCCN1C"
  MEASURED PARAMETER: "HLM QH"
  VALUE UNITS: "%"
  COMPARISON SYMBOL: ">"
  REPORTED RESULT: 88
- SUBSTANCE SMILES: "C[C@H](Oc1ccnc(-c2noc([C@@]3(C)CCCc4sc(N)c(C#N)c43)n2)n1)[C@@H]1CCCN1C"
  MEASURED PARAMETER: "HLM QH"
  VALUE UNITS: "%"
  COMPARISON SYMBOL: "="
  REPORTED RESULT: 81
- SUBSTANCE SMILES: "C[C@H](Oc1nccc(-c2noc([C@@]3(C)CCCc4sc(N)c(C#N)c43)n2)n1)[C@@H]1CCCN1C"
  MEASURED PARAMETER: "HLM QH"
  VALUE UNITS: "%"
  COMPARISON SYMBOL: "="
  REPORTED RESULT: 87
- SUBSTANCE SMILES: "C[C@H]1CN(C)CCCN1c1nccc(-c2noc([C@@]3(C)CCCc4sc(N)c(C#N)c43)n2)n1"
  MEASURED PARAMETER: "HLM QH"
  VALUE UNITS: "%"
  COMPARISON SYMBOL: "="
  REPORTED RESULT: 94
- SUBSTANCE SMILES: "C[C@H]1CN(C)CCN1c1nccc(-c2noc([C@@]3(C)CCCc4sc(N)c(C#N)c43)n2)n1"
  MEASURED PARAMETER: "HLM QH"
  VALUE UNITS: "%"
  COMPARISON SYMBOL: "="
  REPORTED RESULT: 95
- SUBSTANCE SMILES: "CC(C)N1CCCN(c2nccc(-c3noc([C@@]4(C)CCCc5sc(N)c(C#N)c54)n3)n2)[C@@H](C)C1"
  MEASURED PARAMETER: "HLM QH"
  VALUE UNITS: "%"
  COMPARISON SYMBOL: ">"
  REPORTED RESULT: 88
- SUBSTANCE SMILES: "C[C@H]1CN(CC2CC2)CCCN1c1nccc(-c2noc([C@@]3(C)CCCc4sc(N)c(C#N)c43)n2)n1"
  MEASURED PARAMETER: "HLM QH"
  VALUE UNITS: "%"
  COMPARISON SYMBOL: ">"
  REPORTED RESULT: 95
